Source listed as the supplement of paper PMC10981050.

- System: OCI-AML2
- experiment.notes: cell viability relative to vehicle control; higher = less cytotoxic;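 also: after 48 h exposure read by CellTiter-Glo luminescence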
- settings: 10 µM; SRSF2 genotype: wt/wt
recorded.endpoint: cell viability (%)
Hi! Could you send only the number? It should be in %, unit omitted.

[
  {
    "smiles.code": "CCn1c(-c2nonc2N)nc2c(C#CC(C)(C)O)ncc(OC[C@H]3CCCNC3)c21",
    "cell viability (%)": 57.1
  },
  {
    "smiles.code": "CC(=O)O[C@H]1CC(=O)OC(C)(C)[C@@H]2CC(=O)[C@]3(C)[C@H](CC[C@@]4(C)[C@@H](c5ccoc5)OC(=O)[C@H]5O[C@]543)[C@@]12C",
    "cell viability (%)": 101
  },
  {
    "smiles.code": "O=C1N=C(N2CCOCC2)CN1c1ccc(Cl)cc1",
    "cell viability (%)": 86.8
  }
]

Continue with the molecule presented below.
Lab entry: OCI-AML2 assay, molecule `C=C(C)[C@@H]1CC[C@]2(C)CC[C@]3(C)[C@H](CC[C@@H]4[C@@]5(C)CC[C@H](O)C(C)(C)[C@@H]5CC[C@]43C)[C@@H]12` , cell viability = 108

----------
- Tested on: MOLM14
- experiment.notes: cell viability relative to vehicle control; higher = less cytotoxic
- settings: 10 µM; SRSF2 genotype: SRSF2 wt/wt
Lab note: anything with cell viability below 90% is marked Criterion met; values at 90% or higher are marked Criterion not met.

Input: Quick check: does `Nc1nc(=O)[nH]cc1F` have cell viability under 90%?
Output: Criterion not met

----------
Known cell viability of a selection of compounds
- System: MARIMO
- experiment.notes: cell viability relative to vehicle control; higher = less cytotoxic
- settings: 10 µM; SRSF2 genotype: SRSF2 wt/wt
Reply with just the number (in %).

Below: 5 compounds and their reported cell viability.
[
  {
    "compound": "C/C=C(/C)C(=O)O[C@H]1Cc2cc3ccc(=O)oc3cc2OC1(C)C [Decursinol angelate]",
    "recorded.endpoint": "cell viability",
    "result.unit": "%",
    "readout.number": 82.4
  },
  {
    "compound": "O=C(O[C@@H]1Cc2c(O)cc(O)cc2O[C@H]1c1cc(O)c(O)c(O)c1)c1cc(O)c(O)c(O)c1 [Gallocatechin gallate]",
    "recorded.endpoint": "cell viability",
    "result.unit": "%",
    "readout.number": 91.7
  },
  {
    "compound": "Nc1nc(-c2ccco2)c2cnn(Cc3ccccc3F)c2n1",
    "recorded.endpoint": "cell viability",
    "result.unit": "%",
    "readout.number": 70.2
  },
  {
    "compound": "O=c1cc(N2CCOCC2)oc2c(-c3cccc4c3sc3ccccc34)cccc12",
    "recorded.endpoint": "cell viability",
    "result.unit": "%",
    "readout.number": 87.3
  },
  {
    "compound": "OC1COC(O)C(O)C1O (stereo not drawn) [L(+)-Arabinose]",
    "recorded.endpoint": "cell viability",
    "result.unit": "%",
    "readout.number": 112
  }
]

Now for a further compound.
So, `Cc1cc(-c2nc(-c3ccc(OC(F)(F)F)cc3)no2)nn1Cc1ccnc(N2CCN(C3CC3)CC2)c1` ? Its cell viability was 53.7

----------
cell viability: recorded values
- System: K562
- experiment.notes: cell viability relative to vehicle control; higher = less cytotoxic
- settings: 10 µM; SRSF2 genotype: SRSF2 wt/wt
Give the number; % is assumed, so skip it.

See these solved cases before continuing.
[
  {
    "compound": "CCOc1cc2ncc(C#N)c(Nc3ccc(F)c(Cl)c3)c2cc1NC(=O)/C=C/CN(C)C [Pelitinib (EKB-569)]",
    "readout.number": 0.91
  },
  {
    "compound": "O=C(c1cccc(Br)c1)N1CCC(N2CCCC2)CC1",
    "readout.number": 91.6
  },
  {
    "compound": "N#CC[C@H](C1CCCC1)n1cc(-c2ncnc3[nH]ccc23)cn1 [S-Ruxolitinib]",
    "readout.number": 113
  },
  {
    "compound": "COc1cc2c(cc1O)[C@@H](Cc1ccc(O)c(Oc3ccc(C[C@@H]4c5cc(OC)c(OC)cc5CCN4C)cc3)c1)N(C)CC2 [Daurisoline]",
    "readout.number": 15.9
  },
  {
    "compound": "COc1cc(Nc2ncc(F)c(Nc3ccc4c(n3)NC(=O)C(C)(C)O4)n2)cc(OC)c1OC [R406(free base)]",
    "readout.number": 104
  }
]

# compound CC(C)=CCC[C@](C)(O[C@@H]1O[C@H](CO[C@@H]2OC[C@H](O)[C@H](O)[C@H]2O)[C@@H](O)[C@H](O)[C@H]1O)[C@H]1CC[C@]2(C)[C@@H]1[C@H](O)C[C@@H]1[C@@]3(C)CC[C@H](O[C@@H]4O[C@H](CO)[C@@H](O)[C@H](O)[C@H]4O[C@@H]4O[C@H](CO)[C@@H](O)[C@H](O)[C@H]4O)C(C)(C)[C@@H]3CC[C@]12C [Ginsenoside Rb2] ; its cell viability = 84
